Measured DC50 accompanies every entry in the list below.
Target: ER (Homo sapiens (Human), UniProt P03372)
Sequence (P03372 whole entry): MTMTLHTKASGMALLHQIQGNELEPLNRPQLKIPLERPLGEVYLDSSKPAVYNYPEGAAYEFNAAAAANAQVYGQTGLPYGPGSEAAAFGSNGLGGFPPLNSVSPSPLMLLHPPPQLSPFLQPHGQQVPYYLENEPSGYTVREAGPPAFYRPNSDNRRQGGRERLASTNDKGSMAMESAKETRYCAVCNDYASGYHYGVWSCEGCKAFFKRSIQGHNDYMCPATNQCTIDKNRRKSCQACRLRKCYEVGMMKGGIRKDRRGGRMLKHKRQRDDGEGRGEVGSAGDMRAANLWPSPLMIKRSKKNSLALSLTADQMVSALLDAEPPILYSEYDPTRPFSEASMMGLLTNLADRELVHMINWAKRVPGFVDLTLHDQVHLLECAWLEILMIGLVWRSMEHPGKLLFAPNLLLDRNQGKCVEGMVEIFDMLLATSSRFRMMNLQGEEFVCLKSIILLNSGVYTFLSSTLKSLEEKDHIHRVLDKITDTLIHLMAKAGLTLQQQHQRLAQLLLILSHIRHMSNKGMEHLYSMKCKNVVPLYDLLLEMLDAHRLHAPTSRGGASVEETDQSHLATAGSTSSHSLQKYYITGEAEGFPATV
Assay: In-cell western (ICW) ER degradation assay in MCF-7 cells
Format: cell-based
Details: ER degradation, MCF7, 16 hrs

Compound: CC(C(=O)N1Cc2cc3c(cc2C1)C(=O)N(C1CCC(=O)NC1=O)C3=O)N1CCC2(CCN(c3ccc([C@H]4c5ccc(O)cc5OC[C@H]4c4ccccc4)cc3)CC2)CC1 (single isomer, unassigned) [Compound A57]
DC50: > 100 nM

Lab note: next compound to report on.
Problem: Hi! What's the reported DC50 for COC[C@H](C(=O)N1Cc2cc3c(cc2C1)C(=O)N(C1CCC(=O)NC1=O)C3)N1CCC2(CCN(c3ccc([C@@H]4c5ccc(O)cc5OC[C@@H]4c4ccccc4)cc3)CC2)CC1 (single isomer, unassigned) [Compound A60] on ER (Homo sapiens (Human), UniProt P03372)?
Solution: < 1 nM

###

Biological target: ER (Homo sapiens (Human), UniProt P03372)
Test: In-cell western (ICW) ER degradation assay in T47D cells
Assay type: cell-based
Settings: ER degradation, 16 hrs
Measured DC50 accompanies every entry in the list below.

As a guide, the following entries are already answered.
Compound: O=C1CC[C@@H](Nc2ccc(C3CCN(C[C@@H]4COC5(CCN(c6ccc([C@H]7c8ccc(O)cc8OC[C@H]7c7ccccc7)cc6)CC5)C4)CC3)c(F)c2)C(=O)N1 (mixture of isomers) [Compound A162]
Assay Value: < 1 nM
//
Compound: COc1cc(N2CCC(CN3CCN4c5cc6c(cc5OC[C@H]4C3)C(=O)N(C3CCC(=O)NC3=O)C6)CC2)ccc1[C@@H]1c2ccc(O)cc2OC[C@@H]1c1ccccc1 (single isomer, unassigned) [Compound A84]
Assay Value: < 1 nM
//
Compound: COc1nc(C(=O)NC2CCC(=O)NC2=O)ccc1N1CCN(CC2CC3(CCN(c4ccc([C@H]5c6ccc(O)cc6OC[C@H]5c5ccccc5)cc4)CC3)C2)CC1 (single isomer, unassigned) [Compound A97]
Assay Value: < 1 nM
//
Compound: COc1cc(C(=O)N[C@@H]2CCC(=O)NC2=O)ncc1N1CCN(CC2CCC3(CC2)CN(c2ccc([C@H]4c5ccc(O)cc5OC[C@H]4c4ccccc4)cc2)C3)CC1 (single isomer, unassigned) [Compound A144]
Assay Value: > 100 nM

Problem: Record request: DC50 value, item O=C1CC[C@@H](N2Cc3cc4c(cc3C2=O)OC[C@H]2CN(CC3COC5(CCN(c6ccc([C@H]7c8ccc(O)cc8OC[C@H]7c7ccccc7)cc6)CC5)C3)CCN42)C(=O)N1 (stereo partly shown) [Compound A138]
Solution: < 1 nM

Problem: What would you report for COc1cc(N2CCC(CN3CCC(c4ccc(N[C@@H]5CCC(=O)NC5=O)cc4)CC3)CC2)ccc1[C@@H]1c2ccc(O)cc2OC[C@@H]1c1ccccc1 [Compound A150] ?
Solution: < 1 nM

Problem: What would you report for COc1cc(N2CCC3(CC2)CC(CN2CCC4(CC2)COc2c4ccc4c2CN(C2CCC(=O)NC2=O)C4=O)C3)c(F)cc1[C@H]1c2ccc(O)cc2OC[C@H]1c1ccccc1 (stereo partly shown) [Compound A130] ?
Solution: < 1 nM

Problem: What would you report for O=C1CCC(N2Cc3cc4c(cc3C2=O)CN(C(=O)C2CCN(C3CCN(c5ccc([C@@H]6c7ccc(O)cc7OC[C@@H]6c6ccccc6)cc5)CC3)CC2)C4)C(=O)N1 (single isomer, unassigned) [Compound A81] ?
Solution: < 1 nM

Problem: What would you report for O=C1CCC(Nc2ccc3c(c2)OC[C@H]2CN(CC4CC5(CCN(c6ccc([C@@H]7c8ccc(O)cc8OC[C@@H]7c7ccccc7)cc6)CC5)C4)CCN32)C(=O)N1 (stereo partly shown) [Compound A94] ?
Solution: 1 to 10 nM
